system: Trichoderma virens ATCC 9645; experiment: growth yield (OD600) with compound + IPBC relative to untreated control; higher = less growth inhibition; details: compound concentration: 100 uM; IPBC concentration: 200 ng/ml; 40 h
Where a name gives a salt, the structure may show the parent alone. Hit rate of the full screen: of about 1,300 compounds, about 130 (10%) showed an effect of 50% or more. This is one part of a sample in which strong results are shown more often than they occur.
measure_name: growth yield (%)
One number for each entry, in %.

# compound, unit_symbol, growth yield
records = [
    ("CC(C(=O)O)c1ccc(C(=O)c2cccs2)cc1 (stereo unspecified) [Suprofen] + CCCCNC(=O)OCC#CI [3-iodo-2-propynyl butylcarbamate (IPBC)]", "%", 86.6),
    ("CC(C)(C)NCC(O)COc1cccc2c1CC(O)C(O)C2 (stereo unspecified) [Nadolol] + CCCCNC(=O)OCC#CI [3-iodo-2-propynyl butylcarbamate (IPBC)]", "%", 102),
    ("Nc1c(Br)cc(Br)cc1CN[C@H]1CC[C@H](O)CC1 [Ambroxol hydrochloride] + CCCCNC(=O)OCC#CI [3-iodo-2-propynyl butylcarbamate (IPBC)]", "%", 73.2),
    ("CO[C@@]1(NC(=O)C2SC(=C(C(N)=O)C(=O)O)S2)C(=O)N2C(C(=O)O)=C(CSc3nnnn3C)CS[C@@H]21 (stereo partly specified) [Cefotetan] + CCCCNC(=O)OCC#CI [3-iodo-2-propynyl butylcarbamate (IPBC)]", "%", 94.8),
    ("CC(C)(C)NC[C@H](O)COc1ccccc1C1CCCC1 [Penbutolol sulfate] + CCCCNC(=O)OCC#CI [3-iodo-2-propynyl butylcarbamate (IPBC)]", "%", 74.8),
]

Would you be so kind as to report growth yield for each listed record?
1. COc1ccccc1Oc1c(NS(=O)(=O)c2ccc(C(C)(C)C)cc2)nc(-c2ncccn2)nc1OCCO [Bosentan] + CCCCNC(=O)OCC#CI [3-iodo-2-propynyl butylcarbamate (IPBC)]
2. CCCCCCC[N+](CC)(CC)CCCCc1ccc(Cl)cc1 [Clofilium tosylate] + CCCCNC(=O)OCC#CI [3-iodo-2-propynyl butylcarbamate (IPBC)]
3. CC(C(=O)O)c1ccc2c(c1)[nH]c1ccc(Cl)cc12 (stereo unspecified) [Carprofen] + CCCCNC(=O)OCC#CI [3-iodo-2-propynyl butylcarbamate (IPBC)]
4. CC(=C(CCO)SSCC1CCCO1)N(C=O)Cc1cnc(C)nc1N (stereo in doubt) [Fursultiamine Hydrochloride] + CCCCNC(=O)OCC#CI [3-iodo-2-propynyl butylcarbamate (IPBC)]
5. Cc1ccc(-c2cc(C(F)(F)F)nn2-c2ccc(S(N)(=O)=O)cc2)cc1 [Celecoxib] + CCCCNC(=O)OCC#CI [3-iodo-2-propynyl butylcarbamate (IPBC)]

# output
117
13.5
33.2
104
57.8

# input Report growth yield for CC(C)Cc1ccc([C@H](C)C(=O)O)cc1 [S-(+)-ibuprofen] + CCCCNC(=O)OCC#CI [3-iodo-2-propynyl butylcarbamate (IPBC)] please.
# output 70.7
